Exercise: for every item that follows, state its recorded protein stability index.
B1: EPB41L3 (parent)
chain: SELGDYDPDECGSDYISEFRFAPN

variants of: B1; test: protein stability index of a GFP-peptide fusion (GPS, HEK-293T) (PSI 1-6); higher = more stable; conditions: c terminus: a fixed tail appended;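 also: lentivirally expressed fusions sorted by FACS into six bins by GFP to DsRed ratio, PSI derived from sequencing read proportions per bin multiplied by bin number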
Simply state the number, no unit and no words.

Data request: Supply reported protein stability index belonging to this variant: `A22F`
Data returned: 3.5

Data request: Please indicate protein stability index recorded for `G12M`
Data returned: 1.88

Data request: Provide only the value of recorded protein stability index for `F19N`
Data returned: 5.06

Data request: Recall and state the measured protein stability index for `L3V` .
Data returned: 2.33

Data request: Provide protein stability index value for the following variant: `F19P`
Data returned: 4.97

Data request: Identify the reported protein stability index for the following entry. `R20L`
Data returned: 4.02

Data request: Entry `F21G` needs its protein stability index filled in; supply it.
Data returned: 5.01

Data request: Using known records, supply protein stability index for `S1K`
Data returned: 2.35

Data request: Return value of protein stability index for input `D5V` , no commentary.
Data returned: 1.51

Data request: Identify protein stability index associated with the variant `N24P`
Data returned: 2.84

Data request: Output protein stability index of `S13A`
Data returned: 2.08

Data request: Identify protein stability index associated with the variant `D7K`
Data returned: 1.14

Data request: Please look at this variant and report its protein stability index: `D9S`
Data returned: 2.01

Data request: Kindly indicate its recorded protein stability index. Item: `Y15R`
Data returned: 2.74

Data request: Please look at this variant and report its protein stability index: `P8F`
Data returned: 2.37

Data request: For the variant `E18R` , give its measured protein stability index value.
Data returned: 2.11

Data request: Could you please provide reported protein stability index for `E2V` ? Thanks!
Data returned: 2.04

Data request: Please supply the value of reported protein stability index for the item `G12T`
Data returned: 1.93

Data request: Annotate the variant `N24R` with its measured protein stability index.
Data returned: 2.44

Data request: Specify reported protein stability index for the variant shown: `E10K`
Data returned: 1.85

Data request: Item `E18K` : provide protein stability index
Data returned: 2.5

Data request: Identify protein stability index associated with the variant `E2W`
Data returned: 1.77

Data request: Report measured protein stability index; entry is `G12L`
Data returned: 2.15

Data request: Input `D9T` , output reported protein stability index.
Data returned: 1.47

Data request: Return protein stability index (reported value) for this variant: `G12S`
Data returned: 2.15

Data request: Respond only with protein stability index recorded for `S1A`
Data returned: 1.81

Data request: State its protein stability index: `D7Y`
Data returned: 1.7

Data request: // Input: `I16L` . Output its protein stability index only.
Data returned: 2.56

Data request: Let me know recorded protein stability index for `C11T` , thanks.
Data returned: 1.94

Data request: Identify measured protein stability index corresponding to `D5K`
Data returned: 2.17

Data request: Quick one: give measured protein stability index for `D9Y`
Data returned: 1.99

Data request: Query protein stability index for `R20T`
Data returned: 4.18

Data request: Fill in reported protein stability index for this entry: `E10L`
Data returned: 1.61

Data request: Please give the documented protein stability index of `Y15S`
Data returned: 3.43

Data request: Using known records, supply protein stability index for `F21N`
Data returned: 4.74

Data request: Give the reported value of protein stability index for this record: `P8V`
Data returned: 1.9

Data request: Kindly indicate its recorded protein stability index. Item: `F21A`
Data returned: 4.75

Data request: Report protein stability index, nothing else, for this variant: `F19V`
Data returned: 4.38

Data request: Indicate its recorded protein stability index; the variant in question is `P8S`
Data returned: 2.29

Data request: Supply protein stability index value. Item: `E2D`
Data returned: 1.79

Data request: Dear colleague, please send me the reported protein stability index for `N24L` when you can.
Data returned: 2.02

Data request: Output measured protein stability index for this item: `S17P`
Data returned: 1.52

Data request: Give the value of protein stability index reported for the following: `D9W`
Data returned: 1.63

Data request: Kindly indicate its recorded protein stability index. Item: `Y15G`
Data returned: 3.75

Data request: Look up and report measured protein stability index for this entry: `D5F`
Data returned: 1.68

Data request: Hello, please tell me recorded protein stability index for this one: `N24T`
Data returned: 2.12

Data request: Identify measured protein stability index associated with `D14W`
Data returned: 1.66

Data request: Let me know recorded protein stability index for `Y6E` , thanks.
Data returned: 2.37

Data request: Determine its reported protein stability index: `Y15P`
Data returned: 1.84

Data request: // Input: `E18A` . Output its protein stability index only.
Data returned: 2.1

Data request: Check the records and state protein stability index for `I16G`
Data returned: 4.45

Data request: Please report protein stability index for the following variant: `D14R`
Data returned: 2.51

Data request: Tell us which protein stability index value is on record for `D5Q`
Data returned: 1.75

Data request: Tell me its protein stability index given `N24D` as the entry.
Data returned: 2.89

Data request: Determine its reported protein stability index: `C11G`
Data returned: 2.26

Data request: Indicate the recorded protein stability index value for this variant: `E2P`
Data returned: 2.54

Data request: Give the reported protein stability index for this variant. `D14V`
Data returned: 1.31

Data request: Respond only with protein stability index recorded for `L3E`
Data returned: 1.88

Data request: Return the recorded protein stability index value; entry: `L3W`
Data returned: 1.91

Data request: Quick one: give measured protein stability index for `E2L`
Data returned: 1.77

Data request: In one line, give reported protein stability index of the entry `L3S` .
Data returned: 2.67

Data request: Fill in protein stability index for record `E10Q`
Data returned: 1.84

Data request: Answer with the recorded protein stability index of `E10R` only.
Data returned: 2.26

Data request: Please report protein stability index for the following variant: `P8N`
Data returned: 2.19

Data request: Determine its reported protein stability index: `D9R`
Data returned: 2.12

Data request: Quote protein stability index reported for `C11H` please.
Data returned: 1.6

Data request: Annotate the variant `G4K` with its measured protein stability index.
Data returned: 2.18

Data request: Determine from records and report protein stability index for `N24A`
Data returned: 2.6

Data request: Give protein stability index for the following variant: `S17I`
Data returned: 1.94

Data request: Tell me measured protein stability index for `C11K` please.
Data returned: 2.26

Data request: Using known records, supply protein stability index for `A22C`
Data returned: 2.59

Data request: Give me measured protein stability index, please, for this variant: `G4E`
Data returned: 2.43

Data request: Indicate its recorded protein stability index; the variant in question is `F19A`
Data returned: 4.66
